FYI, the data here is from patent US20100093650A1.

Parameter FPF: see the listing below.
- ASSAY INFO: In vitro lung deposition, Multistage Liquid Impinger (MLI)
- Assay type: physicochemical
- APPLIED CONDITIONS: Mean (n = 3); example 6 capsule 10 mg/10 mg, MLI 100 L/min

{"columns": ["MOLECULE", "FPF"],
 "data": [
  ["CC[C@H]1OC(=O)[C@H](C)[C@@H](O[C@H]2C[C@@](C)(OC)[C@@H](O)[C@H](C)O2)[C@H](C)[C@@H](O[C@@H]2O[C@H](C)C[C@H](N(C)C)[C@H]2O)[C@](C)(OC)C[C@@H](C)C(=O)[C@H](C)[C@@H](O)[C@]1(C)O [Clarithromycin]", "36.3%"],
  ["NC[C@H]1O[C@H](O[C@H]2[C@H](O)[C@@H](O[C@H]3O[C@H](CO)[C@@H](O)[C@H](N)[C@H]3O)[C@H](N)C[C@@H]2N)[C@H](N)C[C@@H]1O [Tobramycin]", "42.5%"]
]}

###

Parameter FPF: see the listing below.
- ASSAY INFO: In vitro lung deposition, Multistage Liquid Impinger (MLI)
- Format: physicochemical
- APPLIED CONDITIONS: MLI3; example 6 capsule 10 mg/10 mg, MLI 100 L/min
- Source text: The amount of macrolide agent inhaled shall be high enough to affect, in some way, the biofilm. It has to be noted that as the effect of macrolide derivatives on the biofilm is mediated through a non-antibacterial mechanism. […]
METRIC NAME: FPF (%)

{"columns": ["SMILES DATA", "DISPLAY UNIT", "MEASURED RESULT"],
 "data": [
  ["NC[C@H]1O[C@H](O[C@H]2[C@H](O)[C@@H](O[C@H]3O[C@H](CO)[C@@H](O)[C@H](N)[C@H]3O)[C@H](N)C[C@@H]2N)[C@H](N)C[C@@H]1O", "%", 47.2],
  ["CC[C@H]1OC(=O)[C@H](C)[C@@H](O[C@H]2C[C@@](C)(OC)[C@@H](O)[C@H](C)O2)[C@H](C)[C@@H](O[C@@H]2O[C@H](C)C[C@H](N(C)C)[C@H]2O)[C@](C)(OC)C[C@@H](C)C(=O)[C@H](C)[C@@H](O)[C@]1(C)O", "%", 39.9]
]}
